biological target: T1, Rae1(31-368)-Nup98(157-213) heterodimer (human, UniProt P78406 31-368; P52948 157-213); experiment: ITC; conditions: both partners purified
T1 construct: also called Rae1-Nup98; Rae1-Nup98 complex
T1 sequence (P78406 31-368, chain 1 of 2): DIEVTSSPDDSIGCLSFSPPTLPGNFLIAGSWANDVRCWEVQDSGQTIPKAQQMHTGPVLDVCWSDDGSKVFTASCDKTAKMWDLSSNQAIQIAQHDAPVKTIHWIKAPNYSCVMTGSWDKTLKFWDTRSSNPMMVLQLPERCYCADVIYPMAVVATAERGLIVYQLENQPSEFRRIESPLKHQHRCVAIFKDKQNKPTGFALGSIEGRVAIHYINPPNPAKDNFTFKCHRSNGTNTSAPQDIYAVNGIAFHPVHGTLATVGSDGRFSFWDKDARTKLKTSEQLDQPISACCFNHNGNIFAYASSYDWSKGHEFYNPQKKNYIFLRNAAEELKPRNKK
T1 sequence (P52948 157-213, chain 2 of 2): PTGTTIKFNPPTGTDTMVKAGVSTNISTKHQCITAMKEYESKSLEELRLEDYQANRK
Overview of recorded Kd for various binders
I only need the number, in nM, no unit after it.

Solved cases (3 shown):
binder: YSQLAEEQPMEID (source: synthetic peptide) [SARS-CoV-2 ORF6-D53A]
Kd / nM: 1150

binder: YSQLDEEEPMEID (source: synthetic peptide) [SARS-CoV-2 ORF6-Q56E]
Kd / nM: 40

binder: YSQLDEAQPMEID (source: synthetic peptide) [SARS-CoV-2 ORF6-E55A]
Kd / nM: 570

# context switch: different binder, same Kd
Query: Requested read-out: Kd. Entry: YSQLDAEQPMEID (source: synthetic peptide) [SARS-CoV-2 ORF6-E54A]
Reply: 580
